The origin of these recorded values is patent US11548870B2.

target: Helios (Homo sapiens, UniProt Q96SW2+Q9UKS7); construct: fluorescently labelled antibodies against Helios and Ikaros; endogenous in cells; host or cells: Jurkat cells; assay: Helios Cellular Degradation Assay (flow cytometry, Helios-PE antibody staining, 72 h); format: cell-based; settings: Jurkat cells, 72 h incubation, flow cytometry
Sequence (Q9UKS7 whole entry): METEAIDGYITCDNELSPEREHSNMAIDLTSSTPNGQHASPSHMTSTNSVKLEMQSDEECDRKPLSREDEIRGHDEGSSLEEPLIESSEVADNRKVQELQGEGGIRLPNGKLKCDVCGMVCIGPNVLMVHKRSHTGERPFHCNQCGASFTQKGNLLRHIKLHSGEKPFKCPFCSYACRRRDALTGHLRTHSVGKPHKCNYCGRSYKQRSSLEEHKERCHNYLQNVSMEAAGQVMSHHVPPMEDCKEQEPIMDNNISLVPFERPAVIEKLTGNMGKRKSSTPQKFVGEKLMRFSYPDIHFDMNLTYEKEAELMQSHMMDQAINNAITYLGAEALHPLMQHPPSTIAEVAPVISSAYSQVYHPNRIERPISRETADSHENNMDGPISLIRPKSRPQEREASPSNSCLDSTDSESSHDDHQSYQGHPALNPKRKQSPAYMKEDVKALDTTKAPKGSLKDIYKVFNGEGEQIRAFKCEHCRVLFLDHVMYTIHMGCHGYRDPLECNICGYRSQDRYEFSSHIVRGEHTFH
Sequence (Q96SW2 whole entry): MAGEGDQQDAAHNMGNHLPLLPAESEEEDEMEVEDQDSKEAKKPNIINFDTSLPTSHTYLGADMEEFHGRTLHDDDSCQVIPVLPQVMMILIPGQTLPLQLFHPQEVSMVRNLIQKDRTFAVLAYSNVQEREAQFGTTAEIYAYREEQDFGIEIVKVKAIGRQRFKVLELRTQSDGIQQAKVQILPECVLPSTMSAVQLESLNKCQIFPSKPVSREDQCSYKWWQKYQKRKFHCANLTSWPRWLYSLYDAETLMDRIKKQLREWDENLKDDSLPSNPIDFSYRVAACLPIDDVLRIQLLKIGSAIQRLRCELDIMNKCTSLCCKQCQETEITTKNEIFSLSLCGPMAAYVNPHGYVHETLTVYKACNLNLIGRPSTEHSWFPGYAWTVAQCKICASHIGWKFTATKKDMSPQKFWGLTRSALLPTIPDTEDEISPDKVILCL
Sequence (Q16531 whole entry partner): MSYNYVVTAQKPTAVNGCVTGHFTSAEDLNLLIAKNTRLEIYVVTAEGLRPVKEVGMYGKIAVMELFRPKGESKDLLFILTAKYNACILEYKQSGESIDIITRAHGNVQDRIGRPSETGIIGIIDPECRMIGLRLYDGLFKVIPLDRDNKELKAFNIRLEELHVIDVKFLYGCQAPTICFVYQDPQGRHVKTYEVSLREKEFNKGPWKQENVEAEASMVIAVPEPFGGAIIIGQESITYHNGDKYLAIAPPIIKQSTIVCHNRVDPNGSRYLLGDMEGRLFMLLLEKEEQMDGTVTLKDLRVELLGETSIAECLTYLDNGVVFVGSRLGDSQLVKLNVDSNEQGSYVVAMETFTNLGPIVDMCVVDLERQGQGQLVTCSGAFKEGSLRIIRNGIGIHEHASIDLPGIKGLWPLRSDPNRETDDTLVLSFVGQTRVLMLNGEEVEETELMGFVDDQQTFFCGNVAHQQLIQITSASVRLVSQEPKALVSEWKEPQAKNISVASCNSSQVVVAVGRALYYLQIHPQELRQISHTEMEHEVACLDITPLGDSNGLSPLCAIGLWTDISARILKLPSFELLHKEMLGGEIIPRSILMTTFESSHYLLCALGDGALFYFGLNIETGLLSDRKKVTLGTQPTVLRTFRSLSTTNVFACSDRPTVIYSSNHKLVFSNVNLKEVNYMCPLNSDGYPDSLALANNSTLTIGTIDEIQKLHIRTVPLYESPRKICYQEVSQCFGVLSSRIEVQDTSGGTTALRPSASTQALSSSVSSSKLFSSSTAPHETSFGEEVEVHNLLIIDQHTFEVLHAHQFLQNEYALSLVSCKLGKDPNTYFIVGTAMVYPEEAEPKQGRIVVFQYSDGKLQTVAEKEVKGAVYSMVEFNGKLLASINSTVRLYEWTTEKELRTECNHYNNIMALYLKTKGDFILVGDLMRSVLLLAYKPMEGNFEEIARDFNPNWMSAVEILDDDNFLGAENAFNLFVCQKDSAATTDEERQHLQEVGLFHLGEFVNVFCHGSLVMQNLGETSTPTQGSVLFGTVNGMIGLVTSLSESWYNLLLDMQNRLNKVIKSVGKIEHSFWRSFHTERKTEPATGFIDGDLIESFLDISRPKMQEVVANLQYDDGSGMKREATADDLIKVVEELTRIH
value kind: Helios Dmax (%)
Lab book: enter the figure in %, no units written.

Give the measured Helios Dmax of CN1CCC(N(C)Cc2ccnc(-c3ccc4c(c3)CN(C3CCC(=O)NC3=O)C4=O)c2)C1 (centres unmarked) [Example 29] .
55

Give the measured Helios Dmax of Cc1cc2c(cc1-c1cc(CN(C)C)ccn1)CN(C1CCC(=O)NC1=O)C2=O (centres unmarked) [Example 194] .
5.2

Give the measured Helios Dmax of CN1CCC(N(C)Cc2ccnc(-c3ccc4c(c3)CN(C3CCC(=O)NC3=O)C4=O)c2)C1 (centres unmarked) [Example 49] .
29

Give the measured Helios Dmax of O=C1CCC(N2Cc3cc(-c4cc(CN5CCN(Cc6ccccc6)CC5)ccn4)ccc3C2=O)C(=O)N1 (centres unmarked) [Example 36] .
11

Give the measured Helios Dmax of CC1CC(NCc2ccnc(-c3ccc4c(c3)CN(C3CCC(=O)NC3=O)C4=O)c2)CCO1 (centres unmarked) [Example 80] .
99

Continuing:
Give the measured Helios Dmax of NC(=O)CNCc1ccnc(-c2ccc3c(c2)CN(C2CCC(=O)NC2=O)C3=O)c1 (centres unmarked) [Example 100] .
55

Give the measured Helios Dmax of CCN(C)Cc1ccnc(-c2ccc3c(c2)CN(C2CCC(=O)NC2=O)C3=O)c1 (centres unmarked) [Example 6] .
86

Give the measured Helios Dmax of CCN(C)Cc1ccnc(-c2ccc3c(c2)CN(C2CCC(=O)NC2=O)C3=O)c1 (centres unmarked) [Example 5] .
90
